systemUnderTest: 3',5'-cyclic-AMP phosphodiesterase 4D (Homo sapiens, UniProt Q08499)
Sequence (Q08499 whole entry): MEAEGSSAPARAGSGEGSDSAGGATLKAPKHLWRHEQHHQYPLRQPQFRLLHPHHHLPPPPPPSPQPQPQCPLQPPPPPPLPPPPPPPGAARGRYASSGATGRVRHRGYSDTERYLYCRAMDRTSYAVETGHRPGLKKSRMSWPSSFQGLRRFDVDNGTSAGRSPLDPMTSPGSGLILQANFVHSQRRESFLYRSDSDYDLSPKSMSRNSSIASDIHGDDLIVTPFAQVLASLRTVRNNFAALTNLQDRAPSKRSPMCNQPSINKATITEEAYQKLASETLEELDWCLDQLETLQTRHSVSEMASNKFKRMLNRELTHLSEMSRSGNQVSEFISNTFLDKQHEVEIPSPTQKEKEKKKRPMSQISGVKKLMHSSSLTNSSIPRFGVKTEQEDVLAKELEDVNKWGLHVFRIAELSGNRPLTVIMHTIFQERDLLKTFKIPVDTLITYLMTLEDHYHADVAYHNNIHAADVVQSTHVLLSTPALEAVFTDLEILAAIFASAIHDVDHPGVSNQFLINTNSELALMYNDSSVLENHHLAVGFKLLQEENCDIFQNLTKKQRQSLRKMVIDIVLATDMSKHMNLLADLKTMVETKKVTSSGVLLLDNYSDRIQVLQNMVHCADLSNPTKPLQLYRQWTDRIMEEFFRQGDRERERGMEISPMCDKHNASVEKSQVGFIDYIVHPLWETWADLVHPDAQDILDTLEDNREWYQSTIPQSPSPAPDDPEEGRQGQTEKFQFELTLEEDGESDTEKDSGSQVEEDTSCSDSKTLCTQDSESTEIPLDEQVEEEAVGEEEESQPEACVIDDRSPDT
experimentSummary: Inhibition of PDE4D isolated from human U937 cells using [3H]-cAMP incubated for 30 mins
molecules and their reported IC50

Some solved cases for reference:
• CCCCCCC1c2cc(OC3CCCC3)c(OC)cc2CC2COC(=O)N21 (mixture of isomers) = 23.1 µM
• COc1cc2c(cc1OC1CCCC1)C(C)N1C(=O)OCC1C2 (mixture of isomers) = 12.8 µM
• COc1cc2c(cc1OC1CCCC1)C(c1ccccc1)N1C(=O)OCC1C2 (mixture of isomers) = 31.6 µM
• CCCCCOc1cc2c(cc1OC)CC1COC(=O)N1C2 (racemic) = 23.3 µM
• COc1cc2c(cc1OC1CCCCC1)CN1C(=O)OCC1C2 (racemic) = 13.9 µM

IC50 for COc1cc2c(cc1OC1CCCC1)CN1C(=O)OCC1C2 (racemic) is 5.13 µM

IC50 for COc1cc2c(cc1OCC1CC1)CN1C(=O)OCC1C2 (racemic) is 7.15 µM

IC50 for COc1cc2c(cc1OC1CCCC1)C(C1CCCCC1)N1C(=O)OCC1C2 (mixture of isomers) is 26.7 µM
